- Measurement Protocol: protease stability score; higher = more stable; yeast display proteolysis, trypsin and chymotrypsin;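 note: relative to predicted unfolded state with 0 unfolded-like and 1 meaning tenfold more protease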
Each record here notes measured protease stability score.
Answer with a number only.

Examples from the recorded data:
| Residue String | protease stability score |
| --- | --- |
| DEEEKALDHAWRRFLETLKTGDERKFHELLDPNVQIDWNGRKLHGMHLIVDIIRRVKNLKSHEIHIRHITVIGDKVEFRSDIRGTVDGVDTEIHTRYLFLKIDGQWVLHHEEIV | 2.22 |
| TEEDELAHRFWELIRTSFLTGDEESLERLADPNVRLEIGDKELHGREQFSHIMREFVERFKNLRVRVEEERVVGDKAESIEDFHFNGQNLKVLTIVKKINGKWVIKSIVIKIE | 1.7 |
| DEEEEFQRELVKLLVEWVHTGDWEHISKYADPHVKVHVDGRDSIGREEMRKTLKRFSDLLGADHIRFEHVRIIDGRVTIHSRVEYGDKEHHIIIQSSKIDGRWYLHSVDIR | 0.995 |
| DEDEEDKKWMSEHLENLIHTGDEENLLKLVDPHAKVLVDGRTRHGRETLETWLDRFLRELGVDRVESRITHFDRIDGKVHVIMSIHVNGVDFISHSISQKVNGRWVIRSLHYDER | 0.587 |
| DEMRRDVDETLKELLEAWETGDEEKVSHLMDPNVRIHIGDKTLVGRELVREEVRHLRYHDYDVHHIRVIGEKADIDGVLDGNVNGRRENRKIHLHLLKVDGRWFFEETRFE | -0.004 |

Would you kindly look at the next entry?
Query block: // returns reported protease stability score for input DEIEKELTDVFWEWLHLHITGDEDRLRDLMDPDVRLIYGDKTAVGREEFEKMWRELRHRFDHIRNVQIHDKRIVGNKLEMDFNFDHEVNGRREHTRVKIVLITINGKLHAFRIEVE
Result block: 1.4

###

- Measurement Protocol: protease stability score; higher = more stable; yeast display proteolysis, trypsin and chymotrypsin;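 note: relative to predicted unfolded state with 0 unfolded-like and 1 meaning tenfold more protease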
Rule: protease stability score of 2 or more gives class 1; anything lower gives class 0.

Study these solved cases before continuing.
| Residue String | Assigned Class |
| --- | --- |
| SEEEKHSHKAVEIITELLKTGDWHEILKNADPTTKSDFNGVELHGWEALQSILKFMGIDHVELKSIDVFNGRLTVHRNMHINGREHHLIIIALKVNGKWVLESMEVH | class 0 |
| EERERLAEELARIWLEVLETGDWKMLHDLADPNVRNVVGDKEQHGREEMSRFYTEWHEHIRIHRIEIESIDIQGNKIQIHGRIDMEINGKRRDQRLEIIIIVINGRIKRLEVRLH | class 0 |
| DEEEHEWRKVIHELLHAFMTGDWKRFLKLVDPHAKFLVDGQEMHGREVLKHYIDRIKNMRIEIRDETYDMVDGRMHSIFQLELTQGEYRHESYIEVIIKKFDGRWRVHEVDFEIR | class 1 |

Query block: API: above_or_equal(metric=protease stability score, cutoff=2) for item DDEEEESEHAVKFWKHAQETGDFDEMRRLADPNVKVEIGDKELHGRKDFTRLLREHKEKLGVERIEVFIHDMHPINGRVTVHVIIEYNGQRQWFHVIFLKINGRWFIESMHIT
Result block: class 0

Query block: API: above_or_equal(metric=protease stability score, cutoff=2) for item DTTEKHQKDMARAQIHSLETGDFKELMELLDPNVRFEFEVGDKRIERHGRELMVHFILKEYEEIRIRIDSWRVVNGVVKIELRLHVGDKESRIEIYLLIINGQAKSVHFDVR
Result block: class 0

Query block: API: above_or_equal(metric=protease stability score, cutoff=2) for item DEEEHIARHIFEHFITWLLTGDEEVLKDLADPNVRLDINGRHVVGREEFRRWLKEDLEHLRIHDMDLRRVRVQGNKMDLDVQVDGIVNGQHRHHNTRLIFEKVDGRWLLRSIIVK
Result block: class 1
